This listing pairs compounds with measured inhibition at 1 µM.
Biological target: ABHD6 (Mus musculus (Mouse), UniProt Q8R2Y0)
Sequence (Q8R2Y0 whole entry): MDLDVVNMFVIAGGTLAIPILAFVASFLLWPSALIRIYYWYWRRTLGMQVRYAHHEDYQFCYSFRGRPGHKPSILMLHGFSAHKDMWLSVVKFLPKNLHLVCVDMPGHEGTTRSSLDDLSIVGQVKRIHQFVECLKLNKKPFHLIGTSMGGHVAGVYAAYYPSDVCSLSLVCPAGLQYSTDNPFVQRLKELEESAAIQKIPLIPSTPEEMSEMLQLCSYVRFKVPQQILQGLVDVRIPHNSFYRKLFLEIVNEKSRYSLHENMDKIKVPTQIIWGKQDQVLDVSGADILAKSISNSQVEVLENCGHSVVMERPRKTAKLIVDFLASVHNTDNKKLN
Assay: In vitro competitive activity-based protein profiling (mouse brain membrane fraction or cell lysates), ABHD6 band
Assay type: biochemical
Conditions: 1 μM, mouse proteome; read-out: ABHD6 % Inh 1 μM (mouse)

compound: CS(=O)(=O)NC1CCN(c2cc(Cl)ccc2CN2CCCC23CCN(C(=O)OC(C(F)(F)F)C(F)(F)F)CC3)CC1
inhibition at 1 µM: < 25%
--
compound: Cc1cc(CN2CCCC23CCN(C(=O)OC(C(F)(F)F)C(F)(F)F)CC3)ccc1Cl
inhibition at 1 µM: < 25%
--
compound: O=C(OC(C(F)(F)F)C(F)(F)F)N1CCC2(CCN(Cc3ccc(N4CCOCC4)c(C(F)(F)F)c3)C2)CC1
inhibition at 1 µM: ≥ 75%
--
compound: O=C(O)C1CCN(c2cc(CN3CCCC34CCN(C(=O)OC(C(F)(F)F)C(F)(F)F)CC4)cc(OC(F)(F)F)c2)CC1
inhibition at 1 µM: < 25%
--
compound: CS(=O)(=O)N1CCc2cccc(CN3CCC4(CCN(C(=O)OC(C(F)(F)F)C(F)(F)F)CC4)C3)c2C1
inhibition at 1 µM: ≥ 75%
--
compound: CS(=O)(=O)N1CCN(c2cc(Cl)cc(CN3CCCC34CCN(C(=O)OC(C(F)(F)F)C(F)(F)F)CC4)c2)CC1
inhibition at 1 µM: < 25%
--
compound: CC(=O)N1CCCc2cccc(CN3CCC4(CCN(C(=O)OC(C(F)(F)F)C(F)(F)F)CC4)C3)c21
inhibition at 1 µM: ≥ 75%
--
compound: O=C(OC(C(F)(F)F)C(F)(F)F)N1CCC2(CCCN2Cc2ccc(C(F)(F)F)cc2OC2CCOCC2)CC1
inhibition at 1 µM: 25 to 75%
--
compound: O=C(OC(C(F)(F)F)C(F)(F)F)N1CCC2(CCCN2Cc2ccc(N3CCCC3)c(C(F)(F)F)c2)CC1
inhibition at 1 µM: 25 to 75%
--
compound: CC1(C)CC2(CCN(C(=O)OC(C(F)(F)F)C(F)(F)F)CC2)CN1Cc1cc(CN2CCOCC2)ccc1OC(F)(F)F
inhibition at 1 µM: 25 to 75%
--
compound: O=C(OC(C(F)(F)F)C(F)(F)F)N1CCC2(CCCN2Cc2ccc(Cl)cc2N2CC3CCC(C2)O3)CC1
inhibition at 1 µM: < 25%
--
compound: O=C(OC(C(F)(F)F)C(F)(F)F)N1CCC2(CCCN2Cc2cccc(N3CC4CCC(C3)O4)c2Cl)CC1
inhibition at 1 µM: < 25%
--
compound: O=C(OC(C(F)(F)F)C(F)(F)F)N1CCC2(CCCN2Cc2cc(N3CCOCC3)cc(C(F)(F)F)c2)CC1
inhibition at 1 µM: < 25%
--
compound: O=C(OC(C(F)(F)F)C(F)(F)F)N1CCC2(CCN(Cc3ccc(N4CCCC4)c(C(F)(F)F)c3)C2)CC1
inhibition at 1 µM: ≥ 75%
--
compound: O=C(OC(C(F)(F)F)C(F)(F)F)N1CCC2(CCCN2Cc2ccc(Cl)cc2N2CCC(F)(F)CC2)CC1
inhibition at 1 µM: < 25%
--
compound: O=C(O)C1CN(c2cc(C(F)(F)F)ccc2CN2CCC3(CCN(C(=O)OC(C(F)(F)F)C(F)(F)F)CC3)C2)CCO1 (stereo not shown)
inhibition at 1 µM: 25 to 75%
--
compound: CC1(C)CC2(CCN(C(=O)OC(C(F)(F)F)C(F)(F)F)CC2)CN1Cc1cccc(OC(F)(F)F)c1N1CCOCC1
inhibition at 1 µM: < 25%
--
compound: CCOc1ccc(CN2CCCC23CCN(C(=O)OC(C(F)(F)F)C(F)(F)F)CC3)cc1
inhibition at 1 µM: < 25%
--
compound: O=C(OC(C(F)(F)F)C(F)(F)F)N1CCC2(CCCN2Cc2cccc(N3CCCC3)c2Cl)CC1
inhibition at 1 µM: < 25%
--
compound: O=C(O)[C@H]1CCCN(c2cc(C(F)(F)F)ccc2CN2CCCC23CCN(C(=O)OC(C(F)(F)F)C(F)(F)F)CC3)C1
inhibition at 1 µM: < 25%
--
compound: CN1CCC(Oc2cc(CN3CCCC34CCN(C(=O)OC(C(F)(F)F)C(F)(F)F)CC4)cc(C(F)(F)F)c2)CC1
inhibition at 1 µM: < 25%
--
compound: O=C(OC(C(F)(F)F)C(F)(F)F)N1CCC2(CCCN2Cc2ccc(OCCN3CCCCC3)c(Cl)c2)CC1
inhibition at 1 µM: < 25%
--
compound: O=C(O)c1cc(CN2CCCC23CCN(C(=O)OC(C(F)(F)F)C(F)(F)F)CC3)ccc1C(F)(F)F
inhibition at 1 µM: < 25%
--
compound: O=C(O)[C@@H]1CCCN(c2cc(CN3CCCC34CCN(C(=O)OC(C(F)(F)F)C(F)(F)F)CC4)cc(C(F)(F)F)c2)C1
inhibition at 1 µM: < 25%
--
compound: O=C(OC(C(F)(F)F)C(F)(F)F)N1CCC2(CCCN2Cc2ccc(C(F)(F)F)cc2N2CCC(F)CC2)CC1
inhibition at 1 µM: < 25%
--
compound: O=C(OC(C(F)(F)F)C(F)(F)F)N1CCC2(CCCN2Cc2ccc(C(F)(F)F)cc2Oc2nc3ccccc3s2)CC1
inhibition at 1 µM: < 25%
--
compound: O=C(OC(C(F)(F)F)C(F)(F)F)N1CCC2(CCN(Cc3ccc(C(F)(F)F)c(N4CCCC4)c3)C2)CC1
inhibition at 1 µM: ≥ 75%
--
compound: CN1CCCc2ccc(CN3CCCC34CCN(C(=O)OC(C(F)(F)F)C(F)(F)F)CC4)cc21
inhibition at 1 µM: < 25%

----------
Target: MAGL (Mus musculus (Mouse), UniProt O35678)
Sequence (O35678 whole entry): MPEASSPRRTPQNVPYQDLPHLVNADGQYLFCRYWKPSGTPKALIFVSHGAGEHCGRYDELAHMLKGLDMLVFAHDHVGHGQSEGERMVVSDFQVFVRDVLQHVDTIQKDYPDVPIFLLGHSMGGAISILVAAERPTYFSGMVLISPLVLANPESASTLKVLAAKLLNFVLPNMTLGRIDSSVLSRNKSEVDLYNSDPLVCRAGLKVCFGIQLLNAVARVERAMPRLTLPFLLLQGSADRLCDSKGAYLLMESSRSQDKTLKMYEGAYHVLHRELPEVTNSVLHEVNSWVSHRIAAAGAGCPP
Assay: Mouse brain proteomes from inhibitor treated mice (oral gavage, sacrificed 4 h after administration, ABPP analysis)
Type: in vivo, mouse (C57Bl/6J)
Details: 5 mg/kg oral gavage

molecule: O=C(OC(C(F)(F)F)C(F)(F)F)N1CCC2(CCCN2Cc2cc(N3CC4COCC4C3)cc(C(F)(F)F)c2)CC1 (stereo not shown)
MAGL % Inh 5 mg/kg (mouse): ### (### is ≥75%)

molecule: COc1ccc(F)cc1CN1CCCC12CCN(C(=O)OC(C(F)(F)F)C(F)(F)F)CC2
MAGL % Inh 5 mg/kg (mouse): ### (### is ≥75%)

molecule: CS(=O)(=O)N1CCc2cccc(CN3CCCC34CCN(C(=O)OC(C(F)(F)F)C(F)(F)F)CC4)c2C1
MAGL % Inh 5 mg/kg (mouse): ### (### is ≥75%)

----------
# IC50 values compiled below
Target: ABHD6 (Mus musculus (Mouse))
Assay: In vitro competitive activity-based protein profiling (mouse brain membrane fraction or cell lysates), ABHD6 band
Assay type: biochemical
Conditions: mouse proteome, competitive ABPP
quantity name: IC50

compound string: O=C(O)C1CCN(c2cc(Cl)ccc2CN2CCCC23CCN(C(=O)OC(C(F)(F)F)C(F)(F)F)CC3)CC1
quantity name: IC50
result: > 1 µM
--
compound string: O=C(OC(C(F)(F)F)C(F)(F)F)N1CCC2(CCN(Cc3cccc(N4CCCC4)c3)C2)CC1
quantity name: IC50
result: 0.1 to 1 µM
--
compound string: O=C(OC(C(F)(F)F)C(F)(F)F)N1CCC2(CCCN2Cc2ccc(C(F)(F)F)cc2N2CCC2)CC1
quantity name: IC50
result: > 1 µM
--
compound string: O=C(OC(C(F)(F)F)C(F)(F)F)N1CCC2(CCN(Cc3ccc(Cl)cc3N3CCOCC3)C2)CC1
quantity name: IC50
result: 0.1 to 1 µM
--
compound string: O=C(OC(C(F)(F)F)C(F)(F)F)N1CCC2(CCCN2Cc2ccc(Cl)cc2N2CC3CCC(C2)O3)CC1
quantity name: IC50
result: > 1 µM
--
compound string: O=C(OC(C(F)(F)F)C(F)(F)F)N1CCC2(CCCN2Cc2cc(N3CCN(C4CC4)CC3)cc(C(F)(F)F)c2)CC1
quantity name: IC50
result: > 1 µM
--
compound string: CCOc1cc(CN2CCCC23CCN(C(=O)OC(C(F)(F)F)C(F)(F)F)CC3)ccc1Cl
quantity name: IC50
result: > 1 µM
--
compound string: O=C(OC(C(F)(F)F)C(F)(F)F)N1CCC2(CCCN2Cc2ccc(Cl)cc2N2CCCCC2)CC1
quantity name: IC50
result: > 1 µM
--
compound string: Cc1ccc(CN2CCCC23CCN(C(=O)OC(C(F)(F)F)C(F)(F)F)CC3)cc1C(F)(F)F
quantity name: IC50
result: > 1 µM
--
compound string: O=C(OC(C(F)(F)F)C(F)(F)F)N1CCC2(CCCN2Cc2ccccc2Cl)CC1
quantity name: IC50
result: > 1 µM
--
compound string: O=C(OC(C(F)(F)F)C(F)(F)F)N1CCC2(CCCN2Cc2ccc(C(F)(F)F)cc2N2CCCCCC2)CC1
quantity name: IC50
result: > 1 µM
--
compound string: O=C(OC(C(F)(F)F)C(F)(F)F)N1CCC2(CCCN2Cc2ccc(Cl)cc2OCCF)CC1
quantity name: IC50
result: > 1 µM
--
compound string: O=C(OC(C(F)(F)F)C(F)(F)F)N1CCC2(CCCN2Cc2ccc(N3CCCC3)c(C(F)(F)F)c2)CC1
quantity name: IC50
result: > 1 µM
--
compound string: CCN1CCc2cccc(CN3CCC4(CCN(C(=O)OC(C(F)(F)F)C(F)(F)F)CC4)C3)c2C1
quantity name: IC50
result: > 1 µM
--
compound string: O=C(OC(C(F)(F)F)C(F)(F)F)N1CCC2(CCN(Cc3ccc(Cl)cc3N3CCCC3)C2)CC1
quantity name: IC50
result: > 1 µM
